Measured values drawn from paper PMC7774954 for this set.

biological target: MAGI2 PDZ 2 (Homo sapiens, UniProt Q86UL8); construct: made in house; host or cells: E. coli; experiment: Holdup assay, MAGI2-2; format: binding; settings: MAGI2-2
Sequence (Q86UL8 426-510 limits assumed): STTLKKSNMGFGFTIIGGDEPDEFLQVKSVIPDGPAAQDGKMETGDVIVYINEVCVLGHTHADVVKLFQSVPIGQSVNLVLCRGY
readout.name: BI
Simply state the number, no unit and no words.

Query: Consider the compound CC[C@H](C)[C@H](NC(=O)[C@H](CCC(N)=O)NC(=O)[C@@H](NC(=O)[C@H](Cc1c[nH]cn1)NC(=O)[C@H](CCC(N)=O)NC(=O)[C@H](CC(=O)O)NC(=O)[C@H](CCC(=O)O)NC(=O)[C@H](CC(=O)O)NC(=O)CCC(=O)NCCCOCCOCCOCCCNC(=O)CCCC[C@@H]1SC[C@@H]2NC(=O)N[C@@H]21)[C@@H](C)O)C(=O)N[C@H](C(=O)N[C@@H](CCCCNC(C)=O)C(=O)N[C@H](C(=O)O)C(C)C)[C@@H](C)O and give its measured BI.
Result: 0.325
